// data source = patent US20250215029A1

subjectOfTest: pY705-STAT3 in PBMC (Homo sapiens, UniProt P40763)
Construct: Cryopreserved Peripheral Blood Mononuclear Cells (PBMC) are from AllCells; host or cells: cryopreserved PBMC
Sequence (P40763 whole entry): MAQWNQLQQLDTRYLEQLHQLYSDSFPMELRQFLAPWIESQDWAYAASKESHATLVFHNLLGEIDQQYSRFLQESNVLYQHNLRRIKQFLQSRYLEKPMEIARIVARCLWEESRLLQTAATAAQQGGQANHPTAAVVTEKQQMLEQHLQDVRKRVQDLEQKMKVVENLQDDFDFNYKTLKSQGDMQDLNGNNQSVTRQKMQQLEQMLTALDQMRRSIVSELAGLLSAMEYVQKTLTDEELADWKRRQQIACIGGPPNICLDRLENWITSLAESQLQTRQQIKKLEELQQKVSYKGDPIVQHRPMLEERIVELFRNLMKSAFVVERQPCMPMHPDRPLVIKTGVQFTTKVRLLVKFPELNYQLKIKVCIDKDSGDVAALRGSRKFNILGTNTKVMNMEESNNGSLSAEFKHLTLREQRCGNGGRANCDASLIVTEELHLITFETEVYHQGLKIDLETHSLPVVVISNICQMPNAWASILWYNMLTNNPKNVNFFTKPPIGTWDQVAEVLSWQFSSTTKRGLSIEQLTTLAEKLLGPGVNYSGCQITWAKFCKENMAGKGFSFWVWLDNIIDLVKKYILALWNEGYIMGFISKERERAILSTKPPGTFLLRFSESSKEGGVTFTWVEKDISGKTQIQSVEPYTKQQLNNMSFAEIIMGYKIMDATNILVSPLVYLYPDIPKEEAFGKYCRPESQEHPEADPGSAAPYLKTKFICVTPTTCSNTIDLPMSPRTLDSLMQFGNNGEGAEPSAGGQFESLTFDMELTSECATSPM
assayExplanation: MSD-pSTAT-PBMC Assay (pSTAT3, IL-6 stimulated)
Format: cell-based
conditionNotes: PBMC, compound 3 hrs, then 10 ng/mL IL-6 for 10 min; Table 115; read-out: STAT3
Description: Cryopreserved Peripheral Blood Mononuclear Cells (PBMC) are from AllCells. Recombinant Human IL-4 and IL-6 are from Peprotech. […] Cyropreserved PBMCs were thawed out and allowed to recover overnight in IMDM+10% heat-inactivated FBS prior to plating 50,000 (STAT3) or 25,000 (STAT6) cells per well in 96-well U-bottom tissue culture plates. […] Assay plates were then washed and 150 μL of 1× Read Buffer-T (MSD) was added to each well prior to reading on an SQ120 MSD Plate Reader. […]
Would you mind telling me the reported IC50 of each entry?

Ask: Which IC50 is listed for CCCOC(=O)[C@H](C)NP(=O)(Oc1ccccc1)C(F)c1ccc2sc(C(=O)N[C@H]3CCC[C@H]4CC[C@@H](C(=O)N5CC(c6cnccc6O)C5)N4C3=O)cc2c1 (stereo partly drawn) ?
Reply: 0.1 to 1 µM

Ask: Another: CCCOC(=O)[C@H](C)N[P@@](=O)(Oc1ccccc1)[C@H](F)c1ccc2sc(C(=O)N[C@H]3C[C@@H](C)C[C@H]4CC[C@@H](C(=O)N5CC(c6cnccc6C)C5)N4C3=O)cc2c1 (single isomer, unassigned)
Reply: < 0.1 µM

Ask: One more compound: CCCOC(=O)[C@H](C)N[P@](=O)(Oc1ccccc1)[C@H](F)c1ccc2sc(C(=O)N[C@H]3CCC[C@H]4CC[C@@H](C(=O)N5CC(c6cnccc6N(C)C)C5)N4C3=O)cc2c1 (stereo in doubt)
Reply: < 0.1 µM

Ask: Now give it for CC[C@@H](C)OC(=O)[C@H](C)NP(=O)(Cc1ccc2sc(C(=O)N[C@H]3CCC[C@H]4CC[C@@H](C(=O)N5CC(c6cccnc6)C5)N4C3=O)cc2c1)Oc1ccccc1 (stereo partly drawn) too.
Reply: 0.1 to 1 µM

Ask: What do you have for CCCOC(=O)[C@H](C)NP(=O)(Oc1ccccc1)C(C)c1ccc2sc(C(=O)N[C@H]3CCC[C@H]4CC[C@@H](C(=O)N5CC(c6cccnc6)C5)N4C3=O)cc2c1 (stereo partly drawn) ?
Reply: 0.1 to 1 µM

Ask: Same for COc1ccncc1C1CN(C(=O)[C@@H]2CC[C@@H]3CCC[C@H](NC(=O)c4cc5cc([C@@H](F)[P@](=O)(N[C@@H](C)C(=O)OCc6ccccc6)Oc6ccccc6)ccc5s4)C(=O)N32)C1 (single isomer, unassigned) [Compound 1054]
Reply: < 0.1 µM

Ask: Again, but for CCCOC(=O)[C@H](C)NP(=O)(Cc1ccc2sc(C(=O)N[C@H]3CCC[C@H]4CC[C@@H](C(=O)N5CC(c6cccnc6)C5)N4C3=O)cc2c1)Oc1ccccc1 (stereo partly drawn) [Compound 250]
Reply: < 0.1 µM

Ask: Entry to check: CCCOC(=O)[C@H](C)NP(=O)(Oc1ccccc1)[C@@H](F)c1ccc2sc(C(=O)N[C@H]3CCC[C@H]4CC[C@@H](C(=O)N5CC(c6cncnc6N6CCC6)C5)N4C3=O)cc2c1 (stereo partly drawn)
Reply: < 0.1 µM

Ask: Please give the result for CC(C)OC(=O)OCOP(=O)(OCOC(=O)OC(C)C)C(F)(F)c1ccc2ccc(C(=O)N[C@H]3CCCC[C@H]4CC[C@@H](C(=O)N5C[C@H](c6cc[nH]c(=O)c6)[C@@H](C#N)C5)N4C3=O)cc2c1 (single isomer, unassigned) too.
Reply: 0.1 to 1 µM

###

subjectOfTest: Recombinant STAT6 protein (STAT6 (W123-T658)) (Homo sapiens, UniProt P42226)
Construct: Recombinant STAT6 protein (STAT6 (W123-T658))
Sequence (P42226 123-658): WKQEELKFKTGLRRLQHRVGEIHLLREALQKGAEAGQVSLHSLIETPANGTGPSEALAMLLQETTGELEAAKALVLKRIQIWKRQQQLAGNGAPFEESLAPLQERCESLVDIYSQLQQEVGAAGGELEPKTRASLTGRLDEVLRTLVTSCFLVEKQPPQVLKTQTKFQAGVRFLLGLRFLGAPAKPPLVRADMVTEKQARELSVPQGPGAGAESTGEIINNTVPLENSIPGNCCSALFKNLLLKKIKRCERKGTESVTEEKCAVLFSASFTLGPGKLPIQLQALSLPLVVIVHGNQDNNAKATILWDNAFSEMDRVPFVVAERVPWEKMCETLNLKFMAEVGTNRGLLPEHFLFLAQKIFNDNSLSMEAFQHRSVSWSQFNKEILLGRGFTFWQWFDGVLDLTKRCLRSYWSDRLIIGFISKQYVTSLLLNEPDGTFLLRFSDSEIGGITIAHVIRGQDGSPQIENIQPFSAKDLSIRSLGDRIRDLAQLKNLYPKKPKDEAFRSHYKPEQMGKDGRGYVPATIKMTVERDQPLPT
assayExplanation: STAT6 Fluorescence Polarization (FP) Assay
Assay type: binding
conditionNotes: STAT6 (W123-T658) 250 nM, probe 5-FAM-Ap[…]-NH2 2 nM, 45-minute incubation; read-out: STAT6 (FP assay IC50 class)
Method: STAT6 Fluorescence Polarization (FP) Assay An FP assay was developed to determine IC50 values for test substances. […] Reaction components were mixed, and FP was measured after 45-minute incubation at room temperature using a Tecan Spark multimode plate reader. FP signal (mP) was plotted against the log concentration of the test substances and IC50 values were calculated by nonlinear regression analysis using GraphPad Prism software. […]
readout: IC50

Ask: Recorded IC50 of O=C(N[C@H]1CCCC[C@H]2CC[C@@H](C(=O)N3CC(c4ccc[nH]c4=O)C3)N2C1=O)c1cc2cc(C(F)(F)P(=O)(O)O)ccc2s1 [Compound 803] , please.
Reply: 0.3 to 3 µM

Ask: Subsequent entry: CCOc1ccncc1C1CN(C(=O)[C@@H]2CC[C@@H]3CCC[C@H](NC(=O)c4cc5cc([C@@H](F)P(=O)(O)O)ccc5s4)C(=O)N32)C1 (single isomer, unassigned) [Compound 771]
Reply: 3 to 30 µM

Ask: Here is the next compound: CO[C@@H]1CC[C@@H](NC(=O)[C@@H]2CC[C@@H]3CCC[C@H](NC(=O)c4cc5cc(C(F)P(=O)(O)O)ccc5s4)C(=O)N32)C1 (some centres unmarked) [Compound 536]
Reply: 3 to 30 µM

Ask: Try this compound next: COc1ncncc1C1CN(C(=O)[C@@H]2CC[C@@H]3CCC[C@H](NC(=O)c4cc5cc(C(F)P(=O)(O)O)ccc5s4)C(=O)N32)C1 (some centres unmarked) [Compound 764]
Reply: 3 to 30 µM

Ask: // query: O=C(N[C@H]1CCC[C@H]2CC[C@@H](C(=O)N3CC(c4ncccc4F)C3)N2C1=O)c1cc2cc(C(F)P(=O)(O)O)ccc2s1 (some centres unmarked) [Compound 623]
Reply: 3 to 30 µM

###

subjectOfTest: pY705-STAT3 in PBMC (Homo sapiens, UniProt P40763)
Construct: Cryopreserved Peripheral Blood Mononuclear Cells (PBMC) are from AllCells; host or cells: cryopreserved PBMC
assayExplanation: MSD-pSTAT-PBMC Assay (pSTAT3, IL-6 stimulated)
Assay type: cell-based
conditionNotes: PBMC, compound 3 hrs, then 10 ng/mL IL-6 for 10 min; Table 1114; read-out: pSTAT3
Description: Cryopreserved Peripheral Blood Mononuclear Cells (PBMC) are from AllCells. Recombinant Human IL-4 and IL-6 are from Peprotech. […] Cyropreserved PBMCs were thawed out and allowed to recover overnight in IMDM+10% heat-inactivated FBS prior to plating 50,000 (STAT3) or 25,000 (STAT6) cells per well in 96-well U-bottom tissue culture plates. […] Assay plates were then washed and 150 μL of 1× Read Buffer-T (MSD) was added to each well prior to reading on an SQ120 MSD Plate Reader. […]
pIC50: −log10 of the molar value.
readout: pIC50

Ask: Using the record for CC(C)(C)C(=O)OCOP(=O)(OCOC(=O)C(C)(C)C)C(F)(F)c1ccc2sc(C(=O)N[C@H]3CCC[C@H]4CCC[C@@H](C(=O)N5CC(C#N)C(c6ccccc6)C5)N4C3=O)cc2c1 (stereo partly shown) , report its pIC50.
Reply: 6.00 to 7.00

Ask: How about "CC(C)CC(=O)SCCOP(=O)(OCCSC(=O)CC(C)C)C(F)(F)c1ccc2sc(C(=O)N[C@H]3CCC[C@H]4CC[C@@H](C(=O)N5CC(c6cccnc6)C5)N4C3=O)cc2c1" ?
Reply: > 7.00

Ask: Do the same for CC(C)(C)C(=O)OCOP(=O)(OCOC(=O)C(C)(C)C)C(F)(F)c1ccc2sc(C(=O)N[C@H]3CCCCC[C@H]4CC[C@@H](C(=O)N5C[C@@H](C#N)[C@H](c6ccccc6)C5)N4C3=O)cc2c1 (relative stereo) please
Reply: 5.52 to 6.00

Ask: Try the molecule CC(C)(C)C(=O)OCOP(=O)(Cc1ccc2sc(C(=O)N[C@H]3CCCC[C@H]4CC[C@@H](C(=O)N5C[C@@H](C#N)[C@H](c6ccccc6)C5)N4C3=O)cc2c1)OCOC(=O)C(C)(C)C (single isomer, unassigned)
Reply: 5.52 to 6.00

###

subjectOfTest: Recombinant STAT6 protein (STAT6 (W123-T658)) (Homo sapiens, UniProt P42226)
Construct: Recombinant STAT6 protein (STAT6 (W123-T658))
assayExplanation: STAT6 Fluorescence Polarization (FP) Assay
Type: binding
conditionNotes: STAT6 250 nM, probe 5-FAM-Ap[…]-NH2 2 nM, 45-minute incubation; read-out: STAT6 (FP assay IC50)
Please go through the items and note down their IC50.

Ask: Record request: IC50 value, item O=C(N[C@H]1CCC2(CC2)C[C@H]2CC[C@@H](C(=O)N3CC(c4cccnc4)C3)N2C1=O)c1cc2cc(C(F)(F)P(=O)(O)O)ccc2s1 [Compound 25]
Reply: 0.3 to 3 µM

Ask: Then this compound: N#C[C@H]1CN(C(=O)[C@@H]2CC[C@@H]3CCCC[C@H](NC(=O)c4ccc5ccc(C(F)(F)P(=O)(O)O)cc5c4)C(=O)N32)C[C@@H]1c1ccccc1 (mixture of isomers) [Compound 28]
Reply: ≤ 0.3 µM

Ask: Ok, now N#C[C@@H]1CN(C(=O)[C@@H]2CC[C@@H]3CCCC[C@H](NC(=O)c4ccc5ccc(C(F)(F)P(=O)(O)O)cc5c4)C(=O)N32)C[C@H]1c1cc[nH]c(=O)c1 (relative stereo) [Compound 83]
Reply: ≤ 0.3 µM

Ask: // same read-out, input: O=C(N[C@H]1CCC[C@H]2CC[C@@H](C(=O)N3CC(c4cccnc4)C3)N2C1=O)c1cc2cc(CP(=O)(O)O)ccc2s1 [Compound 78]
Reply: > 30 µM

Ask: Try this compound next: O=C(N[C@H]1CCCC[C@H]2CC[C@@H](C(=O)N3CC4(CC(C5CC5)=NO4)C3)N2C1=O)c1cc2cc(C(F)(F)P(=O)(O)O)ccc2s1 [Compound 72]
Reply: 0.3 to 3 µM

Ask: Also, N#C[C@@H]1CN(C(=O)[C@@H]2C[C@@H](O)[C@@H]3CCCCC[C@H](NC(=O)c4cc5cc(C(F)(F)P(=O)(O)O)ccc5s4)C(=O)N23)C[C@H]1c1ccccc1 (relative stereo) [Compound 76] please.
Reply: ≤ 0.3 µM

Ask: Now this one: O=C(N[C@H]1CCCC[C@H]2CC[C@@H](C(=O)N3CC(c4c[nH]cn4)C3)N2C1=O)c1cc2cc(C(F)(F)P(=O)(O)O)ccc2s1 [Compound 67]
Reply: 0.3 to 3 µM

Ask: Input C[C@]1(NC(=O)c2cc3cc(C(F)(F)P(=O)(O)O)ccc3s2)CCCC[C@H]2CC[C@@H](C(=O)N3CC(C(=O)N4CCOCC4)C3)N2C1=O [Compound 40]
Reply: 3 to 30 µM

Ask: Then O=C(CCC(F)(F)F)NC1(c2ccccn2)CN(C(=O)[C@@H]2CC[C@@H]3CCCC[C@H](NC(=O)c4cc5cc(C(F)(F)P(=O)(O)O)ccc5s4)C(=O)N32)C1 [Compound 124] ?
Reply: 3 to 30 µM

Ask: Proceed to N#Cc1[nH]nc2ccc(NC(=O)[C@@H]3CC[C@@H]4CCCC[C@H](NC(=O)c5cc6cc(C(F)(F)P(=O)(O)O)ccc6s5)C(=O)N43)cc12 [Compound 52]
Reply: 0.3 to 3 µM

Ask: Can you check N#C[C@H]1CN(C(=O)[C@@H]2CC[C@@H]3CCCC[C@H](NC(=O)c4cc5cc(C(F)(F)P(=O)(O)O)ccc5s4)C(=O)N32)C[C@@H]1CC1CCOCC1 (racemic) [Compound 88] next?
Reply: 0.3 to 3 µM
